# ASSAY SYSTEM: T1, P9A
# T1 chain: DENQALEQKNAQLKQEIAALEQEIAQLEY
# PROCEDURE TEXT: two-hybrid library CCNG1;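 note: natural log of median RNA to DNA barcode read ratio; higher means stronger binding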
MEASURED ENDPOINT: interaction score

[[record]]
binder = "DKNAQLKEENAALEEKIQQLKEKIQALKY [P10A]"
value_reported = 2.37

[[record]]
binder = "DKIAQLKEENQQLEQKIQALKEENAALEY [P8A]"
value_reported = -1.56

[[record]]
binder = "DEIQALEEENAQLEQENAALEEEIAQLEY [P1A]"
value_reported = -1.68

[[record]]
binder = "DEIQQLEEEIAQLEQKNAALKEKNQALKY [P3A]"
value_reported = 0.0927

